Just for reference, ChEMBL document CHEMBL1201862 is where these values come from.

- Tested on: HCT-116
- PROCEDURE_TEXT: NCI tumour cell line growth inhibition, 48 h
Activity calls are given as the source filed them. No stated cut-off is given here; in the data, active = GI50 up to about 1.1 µM and inactive = higher.
Permitted responses: class 1 for active, class 0 for inactive

# COMPOUND, CAT
measured = [
    ("Cc1cc(C)nc(NC(P(=O)(O)O)P(=O)(O)O)n1", "class 0"),
]

Shift focus to the following entry.
# lookup: test call for COc1nc(NC2OCC(O)C(O)C2O)c(NC2OCC(O)C(O)C2O)c(=O)n1C (centres undefined)
class 0

----------
- Tested on: XF498
- PROCEDURE_TEXT: NCI tumour cell line growth inhibition, 48 h
Activity calls are given as the source filed them. Cut-off read from the data, not from the text of the source: active = GI50 up to about 1.1 µM and inactive = higher.
Permitted responses: label 1 (active), label 0 (inactive)

# MOLECULE, CAT
rows = [
    ("O=C1c2cnccc2Cc2cccc3c2N1c1ccccc1S3", "label 0"),
    ("NC1CC(n2ccc(=O)[nH]c2=O)OC1C(O)CO (stereo not drawn)", "label 0"),
    ("N#CC1(c2nc3ccccc3o2)C(=O)C(=O)N(c2ccc(Cl)c(Cl)c2)C(=O)C1=O", "label 0"),
    ("CC(C)C1=Cc2ccc3c(c2C(=O)C1=O)CCCC3", "label 0"),
    ("CC(C)=CC(C(O)c1ccccc1)S(=O)(=O)c1nccn1C (stereo not drawn)", "label 0"),
    ("CCSc1nc2sc(C)c(C)c2c(=O)n1-c1ccc(C(=O)O)cc1", "label 0"),
    ("Fc1ccc(C2SCc3nc4ccccc4n32)cc1 (stereo not drawn)", "label 0"),
    ("Oc1cc(-c2cccs2)nc2cc3c(cc12)OCO3", "label 0"),
]

# lookup: test call for CC(C)N1C(C)[C@@H](c2ccccc2)O[P@@]1(=O)CC1=CCCCC1 (stereo partly drawn)
label 0

Consider next the molecule C=C[C@]1(C)CCC2=C(CCC3C2(C)CCC[C@@]3(C)COC(C)=O)C1 (stereo partly drawn) in the same way.
label 0

Consider next the molecule Cc1nn(C)cc1P(=S)(c1ccccc1)c1ccccc1 in the same way.
label 0

Consider next the molecule C/C(=N\O)c1sc(-n2nc(-c3ccccc3)cc2-c2ccccc2)nc1C in the same way.
label 0

Consider next the molecule COc1c(OC(C)=O)cc2c(OC(C)=O)c1CC(C)CC(OC)C(O)C(C)/C=C(\C)C(OC(N)=O)C(OC)/C=C\C=C(/C)C(=O)N2 (stereo not drawn) in the same way.
label 0

Consider next the molecule NCCCN(CCCN)CCCNCc1c2ccccc2c(CNCCCN(CCCN)CCCN)c2ccccc12 in the same way.
label 0

----------
- System: LXFL 529
- PROCEDURE_TEXT: NCI tumour cell line growth inhibition, 48 h
Activity calls are given as the source filed them. Rule as the data show it: active = GI50 up to about 1.1 µM and inactive = higher.
In this section we review reported GI50 values for a set of molecules.

# MOLECULE, RESULT
records = [
    ("CCOC(=O)C1C(=O)c2ccccc2CN1Cc1ccccc1 (stereo not given)", "> 100 µM (inactive)"),
    ("CCCCc1c2c(nc3c1CCc1cc4c(nc1-3)-c1nc3c(c(CCCC)c1CC4)CCC/C3=C\\c1ccccc1)/C(=C/c1ccccc1)CCC2", "30.8 µM (inactive)"),
    ("CC(=O)OC1=C2CC[C@@H]3C(CC[C@@]4(C)C3CC[C@@H]4OC(C)=O)[C@@]2(C)CC(C#N)C1=O (stereo not given in full)", "30 µM (inactive)"),
    ("COC12CCC(=O)C=C1c1ccccc1N2C(C)=O (stereo not given)", "> 100 µM (inactive)"),
    ("Nc1nc(Cl)cc(NCCCCO)n1", "> 100 µM (inactive)"),
]

Quick one: GI50 for COc1nc(NC2OCC(O)C(O)C2O)c(NC2OCC(O)C(O)C2O)c(=O)n1C (stereo not given) ?
> 100 µM (inactive)

Consider next the molecule Cc1ccc(NC(=O)C2C(=O)N(c3ccc(C)c(C)c3)C(=O)/C2=N\NC(N)=S)cc1C (stereo not given) in the same way.
> 100 µM (inactive)

Consider next the molecule Cc1cc(C)c(C(=O)O)c(N)c1O in the same way.
> 100 µM (inactive)

Consider next the molecule COc1cc(C2=NN(C)C(c3ccc([N+](=O)[O-])o3)C2)cc(OC)c1OC (stereo not given) in the same way.
38.5 µM (inactive)

Consider next the molecule NCCNCc1c2ccccc2c(CNCCN)c2ccccc12 in the same way.
5.86 µM (inactive)
